- target.desc: Alpha 2C adrenergic receptor (Homo sapiens (Human), UniProt P18825)
- Sequence (P18825 whole entry): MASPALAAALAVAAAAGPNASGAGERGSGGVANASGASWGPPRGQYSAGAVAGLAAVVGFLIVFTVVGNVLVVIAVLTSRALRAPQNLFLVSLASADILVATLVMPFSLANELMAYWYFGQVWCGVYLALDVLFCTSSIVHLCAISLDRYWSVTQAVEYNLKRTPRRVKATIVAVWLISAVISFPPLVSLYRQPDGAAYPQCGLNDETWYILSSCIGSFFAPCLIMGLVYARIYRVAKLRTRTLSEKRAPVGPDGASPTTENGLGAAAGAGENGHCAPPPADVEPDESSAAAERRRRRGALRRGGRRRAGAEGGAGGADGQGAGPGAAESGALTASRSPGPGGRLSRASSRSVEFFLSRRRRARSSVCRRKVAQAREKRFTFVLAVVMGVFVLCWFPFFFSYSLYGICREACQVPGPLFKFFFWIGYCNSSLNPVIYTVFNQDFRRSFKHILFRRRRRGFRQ
- assay.comment: Off-target binding, α2C
- assay.setup: read-out: Ki at α2C
measured.attribute: Ki
Answer shape: numeric part, then the unit.

// `CNC(=O)[C@@]12C[C@@H]1[C@@H](n1cnc3c(NC)nc(C#Cc4cnccn4)nc31)[C@H](O)[C@@H]2O` : Ki value = 6.8 µM

// CNC(=O)C12CC1C(n1cnc3c(NCc4cccc(Cl)c4)nc(C#Cc4ccc(F)c(F)c4)nc31)C(O)C2O (single isomer, unassigned) : Ki value = 2 µM

* * *

measured.attribute: pKi
For clarity, pKi is expressed as the negative log10 of concentration in mol/L.

Let me check: CNC(=O)[C@]12CC1[C@@H](n1cnc3c(NC4CCC4)nc(-n4cc(-c5ccc(Cl)s5)nn4)nc31)[C@H](O)C2O (stereo partly shown) , system hA3AR (Homo sapiens (Human)), measured pKi is 8.15

Let me check: CNC(=O)[C@]12CC1[C@@H](n1cnc3c(NCCc4ccccc4)nc(-n4cc(-c5ccc(Cl)s5)nn4)nc31)[C@H](O)C2O (stereo partly shown) , system hA3AR (Homo sapiens (Human)), measured pKi is 8.18

Let me check: `CNC(=O)[C@@]12C[C@@H]1[C@@H](n1cnc3c(NC)nc(C#Cc4ccco4)nc31)[C@H](O)[C@@H]2O` , system hA3AR (Homo sapiens (Human)), measured pKi is 9.21

Let me check: `CNC(=O)[C@@]12C[C@@H]1[C@@H](n1cnc3c(NC)nc(C#Cc4ccsc4)nc31)[C@H](O)[C@@H]2O` , system hA3AR (Homo sapiens (Human)), measured pKi is 9.28

Let me check: `CNC(=O)[C@@]12C[C@@H]1[C@@H](n1cnc3c(NC)nc(C#Cc4cccc(OC)c4)nc31)[C@H](O)[C@@H]2O` , system hA3AR (Homo sapiens (Human)), measured pKi is 9.04

Let me check: CNC(=O)[C@]12CC1[C@@H](n1cnc3c(NC)nc(-n4cc(-c5ccco5)nn4)nc31)[C@H](O)C2O (stereo partly shown) , system hA3AR (Homo sapiens (Human)), measured pKi is 9.02

Let me check: CNC(=O)[C@]12CC1[C@@H](n1cnc3cnc(C#Cc4ccccc4)nc31)[C@H](O)C2O (stereo partly shown) , system hA3AR (Homo sapiens (Human)), measured pKi is 8.82

* * *

# collection of pKi values tested on mA3AR (Mus musculus (Mouse))
# Sequence (Q61618 whole entry): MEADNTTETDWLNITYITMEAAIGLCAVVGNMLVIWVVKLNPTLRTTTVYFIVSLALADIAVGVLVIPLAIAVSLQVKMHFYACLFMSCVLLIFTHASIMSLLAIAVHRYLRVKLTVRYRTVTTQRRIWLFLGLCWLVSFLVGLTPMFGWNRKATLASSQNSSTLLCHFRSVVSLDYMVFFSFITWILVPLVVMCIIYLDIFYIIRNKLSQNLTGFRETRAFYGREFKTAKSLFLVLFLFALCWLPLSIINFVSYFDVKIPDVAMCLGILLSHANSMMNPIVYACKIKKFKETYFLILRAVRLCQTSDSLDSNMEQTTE
For clarity, pKi is expressed as the negative log10 of concentration in mol/L.

// `CNC(=O)[C@@]12C[C@@H]1[C@@H](n1cnc3c(NC)nc(C#Cc4ccco4)nc31)[C@H](O)[C@@H]2O` : pKi value = 7.27

// `CNC(=O)[C@@]12C[C@@H]1[C@@H](n1cnc3c(NC)nc(C#Cc4cccs4)nc31)[C@H](O)[C@@H]2O` : pKi value = 7.37

// `CNC(=O)[C@@]12C[C@@H]1[C@@H](n1cnc3c(NC)nc(C#Cc4cnccn4)nc31)[C@H](O)[C@@H]2O` : pKi value = 7.17

* * *

- target.desc: hA1AR (Homo sapiens (Human), UniProt P30542)
- Sequence (P30542 whole entry): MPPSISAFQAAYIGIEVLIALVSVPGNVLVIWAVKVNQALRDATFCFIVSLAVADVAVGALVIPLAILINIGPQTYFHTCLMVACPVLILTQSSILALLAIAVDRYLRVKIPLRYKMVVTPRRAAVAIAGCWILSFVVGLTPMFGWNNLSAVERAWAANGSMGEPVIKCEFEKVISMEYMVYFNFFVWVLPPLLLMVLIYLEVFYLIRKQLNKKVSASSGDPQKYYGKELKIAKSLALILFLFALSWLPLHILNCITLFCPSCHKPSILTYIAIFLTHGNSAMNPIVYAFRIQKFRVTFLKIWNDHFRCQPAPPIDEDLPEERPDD
- assay.comment: Radioligand binding at hA1AR, CHO cell membranes, [3H]R-PIA
- assay.setup: read-out: hA1AR % inhibition
measured.attribute: inhibition at 10 µM
Answer shape: numeric part, then the unit.

// CNC(=O)[C@@]12C[C@@H]1[C@@H](n1cnc3c(NC)nc(C#Cc4ccncc4)nc31)[C@H](O)[C@@H]2O [Compound 300] : inhibition at 10 µM value = 15%

// CNC(=O)[C@@]12C[C@@H]1[C@@H](n1cnc3c(NC)nc(C#Cc4ccc(CO)cc4)nc31)[C@H](O)[C@@H]2O [Compound 31] : inhibition at 10 µM value = 16%

// CNC(=O)[C@@]12C[C@@H]1[C@@H](n1cnc3c(NC)nc(C#Cc4cc[nH]n4)nc31)[C@H](O)[C@@H]2O [Compound 9] : inhibition at 10 µM value = 30%

// CNC(=O)[C@@]12C[C@@H]1[C@@H](n1cnc3c(NC)nc(C#Cc4ccsc4)nc31)[C@H](O)[C@@H]2O [Compound 16] : inhibition at 10 µM value = 11%

// CNC(=O)[C@@]12C[C@@H]1[C@@H](n1cnc3c(NC)nc(C#Cc4cccc(OC)c4)nc31)[C@H](O)[C@@H]2O [Compound 12] : inhibition at 10 µM value = 8%

// CNC(=O)[C@@]12C[C@@H]1[C@@H](n1cnc3c(NC)nc(C#CC4CC4)nc31)[C@H](O)[C@@H]2O [Compound 20] : inhibition at 10 µM value = 38%

// CNC(=O)[C@@]12C[C@@H]1[C@@H](n1cnc3c(NC)nc(C#Cc4cnccn4)nc31)[C@H](O)[C@@H]2O [Compound 7] : inhibition at 10 µM value = 37%

* * *

Kindly supply the reported half-life values for the records listed here.
- assay.comment: Stability in simulated fluids (gastric, intestinal)
- Assay type: in vitro ADME
- assay.setup: simulated intestinal fluid; read-out: Stability in simulated fluids (t1/2, min): Intestinal

// CNC(=O)[C@@]12C[C@@H]1[C@@H](n1cnc3c(NC)nc(C#Cc4ccco4)nc31)[C@H](O)[C@@H]2O [Compound 17] : half-life value = > 480 min

// CNC(=O)[C@@]12C[C@@H]1[C@@H](n1cnc3c(NC)nc(C#Cc4ccc(Cl)s4)nc31)[C@H](O)[C@@H]2O [Compound 32] : half-life value = > 480 min

// CNC(=O)[C@@]12C[C@@H]1[C@@H](n1cnc3c(NC)nc(C#Cc4cnccn4)nc31)[C@H](O)[C@@H]2O [Compound 7] : half-life value = > 480 min

* * *

- target.desc: hA2AAR (Homo sapiens (Human))
- Sequence (P29274 whole entry): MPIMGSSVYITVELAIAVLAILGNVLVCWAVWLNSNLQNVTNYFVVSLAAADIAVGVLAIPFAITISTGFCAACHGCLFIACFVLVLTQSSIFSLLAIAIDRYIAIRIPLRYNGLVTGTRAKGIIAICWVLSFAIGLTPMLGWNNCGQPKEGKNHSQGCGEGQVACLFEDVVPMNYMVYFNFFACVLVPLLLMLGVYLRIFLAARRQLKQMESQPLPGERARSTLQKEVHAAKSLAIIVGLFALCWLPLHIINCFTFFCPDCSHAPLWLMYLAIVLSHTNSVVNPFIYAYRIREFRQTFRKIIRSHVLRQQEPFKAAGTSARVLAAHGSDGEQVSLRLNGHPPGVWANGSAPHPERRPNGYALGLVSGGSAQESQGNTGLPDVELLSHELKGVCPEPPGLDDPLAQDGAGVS
- assay.comment: Radioligand binding at hA2AAR, HEK293 cell membranes, [3H]CGS21680
- assay.setup: read-out: hA2AAR % inhibition
yes (1) means recorded inhibition at 10 µM is 10% or above; no (0) means it is below 10%.

Ask | Determine whether measured inhibition at 10 µM meets or exceeds 10% for CNC(=O)[C@@]12C[C@@H]1[C@@H](n1cnc3c(NC4CC4c4cccc(F)c4)nc(C#Cc4ccccc4)nc31)[C@H](O)[C@@H]2O (mixture of isomers)
Reply | no (0)

Ask | Determine whether measured inhibition at 10 µM meets or exceeds 10% for CNC(=O)[C@@]12C[C@@H]1[C@@H](n1cnc3c(C)nc(C#Cc4ccc(C(C)(C)C)cc4)nc31)C(O)C2O (stereo in doubt)
Reply | yes (1)

Ask | Determine whether measured inhibition at 10 µM meets or exceeds 10% for `CCc1ccc(C#Cc2nc(NC)c3ncn([C@H]4[C@H](O)[C@H](O)[C@]5(C(=O)NC)C[C@H]45)c3n2)o1`
Reply | no (0)

Ask | Determine whether measured inhibition at 10 µM meets or exceeds 10% for `CNC(=O)[C@@]12C[C@@H]1[C@@H](n1cnc3c(NC)nc(C#Cc4cnn(C)c4)nc31)[C@H](O)[C@@H]2O`
Reply | yes (1)

Ask | Determine whether measured inhibition at 10 µM meets or exceeds 10% for `CNC(=O)[C@@]12C[C@@H]1[C@@H](n1cnc3c(NC)nc(C#Cc4ccc(CO)cc4)nc31)[C@H](O)[C@@H]2O`
Reply | yes (1)

Ask | Determine whether measured inhibition at 10 µM meets or exceeds 10% for `CNC(=O)[C@@]12C[C@@H]1[C@@H](n1cnc3c(NC)nc(C#Cc4ccco4)nc31)[C@H](O)[C@@H]2O`
Reply | yes (1)

Ask | Determine whether measured inhibition at 10 µM meets or exceeds 10% for `CNC(=O)[C@@]12C[C@@H]1[C@@H](n1cnc3c(NC)nc(C#Cc4cccc(OC)c4)nc31)[C@H](O)[C@@H]2O`
Reply | yes (1)

Ask | Determine whether measured inhibition at 10 µM meets or exceeds 10% for `CNC(=O)[C@@]12C[C@@H]1[C@@H](n1cnc3c(NC)nc(C#Cc4cccnc4)nc31)[C@H](O)[C@@H]2O`
Reply | yes (1)

Ask | Determine whether measured inhibition at 10 µM meets or exceeds 10% for CNC(=O)[C@@]12C[C@@H]1[C@@H](n1cnc3c(NC)nc(C#Cc4cccc(C(F)(F)F)c4)nc31)C(O)C2O (stereo in doubt)
Reply | yes (1)

Ask | Determine whether measured inhibition at 10 µM meets or exceeds 10% for `CNC(=O)[C@@]12C[C@@H]1[C@@H](n1cnc3c(NC)nc(C#Cc4cnccn4)nc31)[C@H](O)[C@@H]2O`
Reply | yes (1)

Ask | Determine whether measured inhibition at 10 µM meets or exceeds 10% for CNC(=O)[C@@]12C[C@@H]1[C@@H](n1cnc3c(/C=C(\O)c4ccc(C(C)(C)C)cc4)nc(C#Cc4ccc(C(C)(C)C)cc4)nc31)C(O)C2O (stereo in doubt)
Reply | yes (1)

These data points were gathered from patent US10577368B2.
